Experiment: yeast display, Sf9 membrane polyspecificity reagent, FACS + sequencing; frameworks hold sequencing errors
endpoint name: polyreactivity (PSR sort gate)

- chain: "QVQHVESGGGLVQAGGSLRLSCAASGRIFHYYAMGWYRQAPGKERELVATISRRGGTTYYADSVKGRFTISRDNAKNTVYLQMNSLKPEDTAVYYCAAKYFGTRYDYWGQGTQVTVSS"
  polyreactivity (PSR sort gate): "high polyreactivity"
- chain: "QVQLVESGGGLVQAGGSLRLSCAASGIIYGIYAMGWYRQAPGKERELVAAITSRGGTTYYADSVKGRFTISRDNAKNTVYLQMNSLKPEDTAVYYCAARGRRYSHRVGYDWGQGTQVTVSS"
  polyreactivity (PSR sort gate): "high polyreactivity"
- chain: "QVQLVESGGGLVQAGGSLRLSCAASGRIFWYYAMGWYRQAPGKERELVATISYVGGNTYYADSVKGRFTISRDNAKNTVYLQMNSLKPDDTAVYYCARVPYAYLPYKPFQQYSYDYWGQGTQVTVSS"
  polyreactivity (PSR sort gate): "high polyreactivity"
- chain: "QVQLVESGGGLYQAGGSLRLSCAASGIIFKSYLMGWDRQAPGKEREFVARITYRGGSTYYADSVKGRFTISRDNAKYTFNLQMNSLNQEDTAVYYCIARVRRRRYKYDYWGQGTQVTVST"
  polyreactivity (PSR sort gate): "high polyreactivity"
- chain: "QVQLVESGGGLVQAGGSLRLSCAASGITFWFYSKGWYRQSPGNERELVAAISRSGSTNYADSVKGRFTISRDNAKNTVYLQMNSLKPEDTAVYYCAASTYKYKLLYYQYDYWGQGTQVTVSS"
  polyreactivity (PSR sort gate): "high polyreactivity"

**Query** Query (sequence): QVQLVESGGGLVQAGGSLRLSCAASGSTFYRNAMGWYRQAPGKERELVAAISRGSRTYYADSVKGRFTISRDNAKNTVYLQMNSLKPEDTAVYNCAARAGARDTLHDYWGQGTQVTVSS ; field requested: polyreactivity (PSR sort gate)
**Result** high polyreactivity

**Query** Please answer likewise for QVQLVESGGGLVEAGGSLRLSGAASGRSFGIYAMGWYRQAPGKERELVAAITWSGDSTYYADSVKGRFTISRDNAKKTVYLQMNILKPEDTAVYYCAADDVGVTSVRYDYWGQGTLVTVSS
**Result** low polyreactivity

**Query** Please answer likewise for QVQLVESGGGLVQAGGSLRLSCAGSGRTFVYYAMGWYRQAPGREREFVAAISRSGGRTSYADSVKGRFTISRDNAKNTVYLHMNSLKPEDTAVNYCAAEKRTQPTSREYYWGQGTQVTVSS
**Result** high polyreactivity
